molecular target: T1, rat glucagon receptor (rat, UniProt P30082 28-485); test: competition with [125I]glucagon, SPA, membranes of 293HEK cells expressing the receptor
T1 construct: Cloned receptor expressed in 293HEK cells; also called rat GluR; rat GlucR
T1 sequence (P30082 28-485): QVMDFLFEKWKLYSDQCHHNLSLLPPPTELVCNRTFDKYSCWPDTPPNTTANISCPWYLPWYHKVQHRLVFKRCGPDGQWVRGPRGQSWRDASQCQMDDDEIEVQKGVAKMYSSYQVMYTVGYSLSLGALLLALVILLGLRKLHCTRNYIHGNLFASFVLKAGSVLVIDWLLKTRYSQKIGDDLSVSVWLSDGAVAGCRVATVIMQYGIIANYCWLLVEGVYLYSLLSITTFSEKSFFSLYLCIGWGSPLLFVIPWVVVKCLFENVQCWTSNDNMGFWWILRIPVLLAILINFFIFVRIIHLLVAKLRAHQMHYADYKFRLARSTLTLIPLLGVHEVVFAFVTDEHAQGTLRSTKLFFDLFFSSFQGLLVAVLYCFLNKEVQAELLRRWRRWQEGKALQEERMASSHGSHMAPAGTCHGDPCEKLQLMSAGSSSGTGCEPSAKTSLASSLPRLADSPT
pKi: −log10 of the molar value.
Measured Parameter: pKi

{"Binder": "Antibody of example 5 (Ab5) (antibody, human IgG4 S228P, kappa, F234A L235A, V domains shown, Humanized full antibody with kappa light chain and modified human IgG4 Fc) VH: QVQLQESGPGLVKPSETLSLTCTVSGDDITSGYHDWIRQPPGKGLEWIGYISYSGSTQYSPSLKSRVTISVDTSKNQFSLKLSSVTAADTAVYYCARPPGYYGFGPYALDYWGQGTLVTVSS VL: DIQMTQSPSSLSASVGDRVTITCSASSSVSYIHWYQQKPGKAPKLLIYTTSYLAHGVPSRFSGSGSGTDFTLTISSLQPEDFATYYCQQRSTLPPTFGGGTKVEIKR", "pKi": "> 7.30"}

Value of pKi reported for the binder Fab fragment of antibody example 3 (Fab, V domains shown, Expressed in E. coli; Fab = VL+CL and VH+CH1 (Fc absent); also called Fab of Ab3; not shown: His tag) VH: QVQLQESGPGLVKPSETLSLTCTVSGDDITSGYWDWIRQPPGKGLEWIGYISYSGSTYYSPSLKSRVTISVDTSKNQFSLKLSSVTAADTAVYYCARPPGYYGFGPYALDYWGQGTLVTVSS VL: DIQMTQSPSSLSASVGDRVTITCSASSSVSYIHWYQQKPGKAPKLLIYTTSYLAHGVPSRFSGSGSGTDFTLTISSLQPEDFATYYCLQRSTLPPTFGGGTKVEIKR is > 7.30

Antibody of example 2 (Ab2) (antibody, human IgG4 S228P, kappa, F234A L235A, V domains shown, Humanized full antibody with kappa light chain and modified human IgG4 Fc) VH: QVQLQESGPGLVKPSETLSLTCTVSGDDITSGYWNWIRQPPGKGLEWIGYISYSGSTYYIPSLKSRVTISVDTSKNQFSLKLSSVTAADTAVYYCARPPGYYGFGPYAMDYWGQGTLVTVSS VL: DIQMTQSPSSLSASVGDRVTITCSYSSSVSYMHWYQQKPGKAPKLLIYTTSNLAHGVPSRFSGSGSGTDFTLTISSLQPEDFATYYCQQRSTLPPTFGGGTKVEIKR yielded pKi of > 7.30
